B1: r16_88_TrROS_Hall (parent)
chain: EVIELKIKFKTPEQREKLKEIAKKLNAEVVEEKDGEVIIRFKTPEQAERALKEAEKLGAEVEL

Variants of: B1
Assay: folding stability dG (cDNA display proteolysis); higher = more stable
Details: PBS, room temperature
MEASUREMENT_LABEL: folding stability dG (kcal/mol)
Just the number in kcal/mol, nothing appended.

EVIELKIKFKTPEQREKLKHIAKKLNAEVVEEKDGEVIIRFKTPEQAERALKEAEKLGAEVEL [E20H] :: 4.5

Summary for this variant, EVIELKIKFKTPEQREKLKEIAKKLNAEVVEEKDGEVIIRFKTPEQAERALKEAEKLGQEVEL [A59Q] : folding stability dG is 4.05

Consider EVIELKIKFKTPEQREKLKEIAKKLNAEVPEEKDGEVIIRFKTPEQAERALKEAEKLGAEVEL [V30P] . Its measured folding stability dG is 4.07

# folding stability dG of EVIELKIMFKTPEQREKLKEIAKKLNAEVVEEKDGEVIIRFKTPEQAERALKEAEKLGAEVEL [K8M] = 4.48

Input EVIELKIKFKTPEQREKLKEIAKKLNAEVVEEKDGEVIIRFKTPEQAERALKEAEKLGAEVNL [E62N] . Output folding stability dG: 4.53

The variant listed as EVIELKIKFKTPEQREELKEIAKKLNAEVVEEKDGEVIIRFKTPEQAERALKEAEKLGAEVEL [K17E] shows folding stability dG equal to 4.3

Entry under test: EVIELKIKFKTPEQREKLKEIAKKLNAEVVEEKDGEVIIRFKTPEQAEDALKEAEKLGAEVEL [R49D] . Its folding stability dG was 4.56

get_value(item= EVNELKIKFKTPEQREKLKEIAKKLNAEVVEEKDGEVIIRFKTPEQAERALKEAEKLGAEVEL [I3N] , readout=folding stability dG) returns 4.76

Record summary for EVIELKIKFKTPEQREKLKEIAKKLNAENVEEKDGEVIIRFKTPEQAERALKEAEKLGAEVEL [V29N] : reported folding stability dG = 4.62

Noted for EVIELKIKFKTPEQRRKLKEIAKKLNAEVVEEKDGEVIIRFKTPEQAERALKEAEKLGAEVEL [E16R] : its folding stability dG reads 4.54

This collection of values is drawn from the MegaScale stability set (Tsuboyama et al. 2023).
